Hello, the source for this data is ChEMBL document CHEMBL1155883, in case you need it.

So I've got a bunch of compounds here, and I need their selectivity ratio values.
assay: Selectivity index, ratio of CC50 for human MT4 cells to EC50 for HIV1 NL4-3; format: toxicity, cell-based; details: read-out: Ratio CC50/EC50

[ask] Please give measured selectivity ratio of the following entry: COc1ccc(CSc2nc(Cc3c(Cl)cccc3Cl)c(C)c(=O)[nH]2)cc1
[reply] 4570

[ask] Please give measured selectivity ratio of the following entry: COc1ccc(C(=O)CSc2nc(Cc3c(Cl)cccc3Cl)c(C)c(=O)[nH]2)cc1
[reply] > 836

[ask] Please give measured selectivity ratio of the following entry: COc1ccc(C(=O)CSc2nc(Cc3c(Cl)cccc3Cl)c(C(C)C)c(=O)[nH]2)cc1
[reply] > 35000

[ask] Please give measured selectivity ratio of the following entry: Cc1c(Cc2c(F)cccc2F)nc(SCc2ccccc2)[nH]c1=O
[reply] > 538

[ask] Please give measured selectivity ratio of the following entry: COc1ccc(C(=O)CSc2nc(Cc3cccc4ccccc34)c(C(C)C)c(=O)[nH]2)cc1
[reply] 6770

[ask] Please give measured selectivity ratio of the following entry: CC(C)Sc1nc(Cc2c(F)cccc2F)cc(=O)[nH]1
[reply] > 4940

[ask] Please give measured selectivity ratio of the following entry: Cc1c(Cc2c(F)cccc2F)nc(SCc2ccccn2)[nH]c1=O
[reply] > 7

[ask] Please give measured selectivity ratio of the following entry: Cc1c(Cc2c(F)cccc2F)nc(SCC(=O)c2ccc(F)cc2)[nH]c1=O
[reply] > 2480

[ask] Please give measured selectivity ratio of the following entry: CCc1c(Cc2c(Cl)cccc2Cl)nc(SCC(=O)c2ccc(F)cc2)[nH]c1=O
[reply] > 7860

[ask] Please give measured selectivity ratio of the following entry: O=c1cc(Cc2c(F)cccc2F)nc(SCc2ccccc2)[nH]1
[reply] > 730

[ask] Please give measured selectivity ratio of the following entry: Cc1c(Cc2c(F)cccc2F)nc(SCc2ccncc2)[nH]c1=O
[reply] > 1170

[ask] Please give measured selectivity ratio of the following entry: CC(C)c1c(Cc2c(Cl)cccc2Cl)nc(SCC(=O)c2ccccc2)[nH]c1=O
[reply] > 14000

[ask] Please give measured selectivity ratio of the following entry: Cc1c(Cc2c(F)cccc2F)nc(SCC(=O)c2ccccc2)[nH]c1=O
[reply] 4330

[ask] Please give measured selectivity ratio of the following entry: CC(C)c1c(Cc2c(Cl)cccc2Cl)nc(SCC(=O)c2ccc(F)cc2)[nH]c1=O
[reply] > 844

[ask] Please give measured selectivity ratio of the following entry: CCc1c(Cc2c(F)cccc2Cl)nc(SCC(=O)c2ccc(F)cc2)[nH]c1=O
[reply] > 11400

[ask] Please give measured selectivity ratio of the following entry: CCc1c(Cc2c(F)cccc2Cl)nc(SCC(=O)c2ccc(OC)cc2)[nH]c1=O
[reply] > 550

[ask] Please give measured selectivity ratio of the following entry: CCc1c(Cc2c(Cl)cccc2Cl)nc(SCC(=O)c2ccccc2)[nH]c1=O
[reply] > 7430

[ask] Please give measured selectivity ratio of the following entry: COc1ccc(C(=O)CSc2nc(Cc3c(F)cccc3Cl)c(C)c(=O)[nH]2)cc1
[reply] > 60

[ask] Please give measured selectivity ratio of the following entry: Cc1c(Cc2c(F)cccc2Cl)nc(SCC(=O)c2ccccc2)[nH]c1=O
[reply] > 267

[ask] Please give measured selectivity ratio of the following entry: O=C(CSc1nc(Cc2c(F)cccc2Cl)cc(=O)[nH]1)c1ccccc1
[reply] > 10

[ask] Please give measured selectivity ratio of the following entry: Cc1c(Cc2c(F)cccc2Cl)nc(SCC(=O)c2ccc(F)cc2)[nH]c1=O
[reply] > 29500
